Just for reference, patent US8449898B2 is where these values come from.

- System: Pseudoperonospora cubensis (the causal agent of cucumber downy mildew)
- assay-details: Test B: cucumber downy mildew, preventive spray on cucumber seedlings
- Type: in vivo
- experimental-setup: Pseudoperonospora cubensis, Table C; component (b) alone 40 ppm; read-out: CDM Obsd (disease control rating)
Listed here are compounds together with their documented pest or weed control at 40 ppm.
Expressed in %, but write only the number.

A selection of reference data follows.
[
  {
    "compound": "CON=C(C(=O)OC)c1ccccc1CON=C(C)c1cccc(C(F)(F)F)c1 [trifloxystrobin]",
    "target-desc": "Pseudoperonospora cubensis (the causal agent of cucumber downy mildew)",
    "result-units": "%",
    "pest or weed control at 40 ppm": 94
  },
  {
    "compound": "O=[N+]([O-])c1cc(C(F)(F)F)c(Cl)c([N+](=O)[O-])c1Nc1ncc(C(F)(F)F)cc1Cl [fluazinam]",
    "target-desc": "Pseudoperonospora cubensis (the causal agent of cucumber downy mildew)",
    "result-units": "%",
    "pest or weed control at 40 ppm": 100
  },
  {
    "compound": "O=C1c2ccccc2C(=O)N1SC(Cl)(Cl)Cl [folpet]",
    "target-desc": "Pseudoperonospora cubensis (the causal agent of cucumber downy mildew)",
    "result-units": "%",
    "pest or weed control at 40 ppm": 92
  },
  {
    "compound": "C[C@@]1(c2ccc(Oc3ccccc3)cc2)OC(=O)N(Nc2ccccc2)C1=O (racemic) [famoxadone]",
    "target-desc": "Pseudoperonospora cubensis (the causal agent of cucumber downy mildew)",
    "result-units": "%",
    "pest or weed control at 40 ppm": 100
  }
]

Attention now shifts to the item below.
// query pest or weed control at 40 ppm value for entry CO/N=C(/C(=O)OC)c1ccccc1COc1ccccc1C [kresoxim-methyl]
57
